// each record: one item and its pIC50 for SARS-CoV-2 Main Protease (SARS-CoV-2) (UniProt P0DTD1)
pIC50: −log10 of the molar value.
MEASURED_PROPERTY: pIC50

[[record]]
compound = "O=C(Nc1cncc2ccccc12)C1CCOc2c(OCCC(F)(F)F)cc(Cl)cc21 (centres undefined)"
bound_sign = "="
numeric_value = 5.50

[[record]]
compound = "Cc1ccc(S(=O)(=O)N2CCN(C(=O)c3cc(=O)[nH]c4cc(F)ccc34)CC2)c(C)c1"
bound_sign = "<"
numeric_value = 4.00

[[record]]
compound = "CCCOc1c(Cl)cc(C(=O)N2CCC(C3CCNC3)CC2)cc1OCC (centres undefined)"
bound_sign = "<"
numeric_value = 4.00

[[record]]
compound = "CNS(=O)(=O)c1cc2c(cc1OCc1ccccc1)OCO2"
bound_sign = "<"
numeric_value = 4.00

[[record]]
compound = "C=CC(=O)N(Cc1ccccc1Cl)C(C(=O)NC)c1cccnc1 (centres undefined)"
bound_sign = "<"
numeric_value = 4.00

[[record]]
compound = "C[C@H](Nc1cc(Cl)cc(CC(=O)Nc2cncc3ccccc23)c1)c1cccc2ccccc12 (stereo in doubt)"
bound_sign = "="
numeric_value = 5.45

[[record]]
compound = "O=C(NCCCO)c1ccc(N(C(=O)c2cocn2)C(C(=O)NCCc2cccc(F)c2)c2cccnc2)cc1 (centres undefined)"
bound_sign = "<"
numeric_value = 4.00

[[record]]
compound = "CN(c1cc(Cl)cc(CC(=O)Nc2cncc3ccccc23)c1)C1CCN(C(=O)OC(C)(C)C)CC1"
bound_sign = "="
numeric_value = 5.60

[[record]]
compound = "N#CC1(CS(=O)(=O)N2Cc3ccc(Cl)cc3[C@@H](C(=O)Nc3cncc4ccccc34)C2)CCS(=O)(=O)CC1 (stereo in doubt)"
bound_sign = "="
numeric_value = 4.82


The reported numbers originate from the COVID Moonshot data (paper PMC7615835).
